study-target: human salivary α-amylase (Homo sapiens, UniProt P0DUB6)
Construct: purchased Sigma Aldrich
Sequence (P0DUB6 16-511): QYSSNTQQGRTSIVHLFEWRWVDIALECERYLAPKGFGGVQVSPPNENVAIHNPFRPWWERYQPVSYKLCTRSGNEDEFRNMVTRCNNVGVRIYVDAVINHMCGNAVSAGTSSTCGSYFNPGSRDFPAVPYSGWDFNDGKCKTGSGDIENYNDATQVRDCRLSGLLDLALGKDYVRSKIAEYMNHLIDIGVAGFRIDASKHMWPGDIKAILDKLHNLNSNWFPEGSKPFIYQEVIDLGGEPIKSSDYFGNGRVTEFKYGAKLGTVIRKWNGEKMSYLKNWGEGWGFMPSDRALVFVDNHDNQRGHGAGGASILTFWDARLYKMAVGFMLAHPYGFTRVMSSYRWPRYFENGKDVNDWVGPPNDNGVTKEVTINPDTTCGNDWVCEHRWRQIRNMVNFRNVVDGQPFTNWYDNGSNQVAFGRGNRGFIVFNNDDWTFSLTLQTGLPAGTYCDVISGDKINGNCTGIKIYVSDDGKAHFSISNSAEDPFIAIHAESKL
test-name: α-amylase inhibition assay (CNP-G3, absorbance 405 nm)
Assay type: biochemical
experimental-setup: 120 min incubation, pH 6.0, 37 °C
Field: label. Allowed values: YES (IC50 < 100 µM) or NO (IC50 >= 100 µM).

Would you please look over these solved cases?
INSERT INTO measurements (molecule, label_value) VALUES
  ('CC(C)=CCC/C(C)=C/Cc1c([C@@H]2CC(=O)c3c(O)cc(O)cc3O2)ccc(O)c1O', 'NO'),
  ('O=C1C[C@@H](c2ccc(O)cc2)Oc2cc(O)cc(O)c21 [Compound 8, naringenin, reference compound]', 'NO');

**Q:** Determine whether this molecule shows IC50 lower than 100 µM (ties excluded): O=c1c(O)c(-c2ccc(O)c(O)c2)oc2cc(O)cc(O)c12 [Compound 9, quercetin, reference compound]
**A:** YES

**Q:** Determine whether this molecule shows IC50 lower than 100 µM (ties excluded): CC(C)=CCC/C(C)=C/Cc1cc([C@@H]2CC(=O)c3c(O)cc(O)cc3O2)ccc1O
**A:** YES

**Q:** Determine whether this molecule shows IC50 lower than 100 µM (ties excluded): CC(C)=CCC/C(C)=C/Cc1c([C@@H]2CC(=O)c3c(cc(O)c(CC=C(C)C)c3O)O2)ccc(O)c1O
**A:** NO
